tested on: U2OS; assay: Multiplex assay against U2OS; assay type: toxicity, cell-based; conditions: human, 12 h, 1 µM, compound concentration 1 uM, replicate 1
recordedMetric: Population Membrane Permeable-Phenotype (%)
Dear colleague, please return just the value in %, with no unit written.

Observe how each entry below is paired with its result.
CNC(=O)Nc1ccc2c(c1)[C@@]1(CC2)OC(=O)N(CC(=O)N(Cc2ccc(F)cc2)[C@@H](C)C(F)(F)F)C1=O :: 63
COc1cc2ncn(-c3cc(OCc4ccccc4C(F)(F)F)c(C(N)=O)s3)c2cc1OC [GW843682X] :: 12
CCc1nn(CCCN2CCN(c3cccc(Cl)c3)CC2)c(=O)n1CCOc1ccccc1.Cl [NEFAZODONE HYDROCHLORIDE] :: 1

Now consider a different molecule.
Q: What does the data say about its Population Membrane Permeable-Phenotype (%)? Entry: CC(C)CC(=O)Nc1[nH]nc2c1CN(C(=O)C1CCN(C)CC1)C2(C)C
Result: 8
